# SYSTEM NAME: T1, CEA-derived … (SEQ ID NO: 71)-HLA-A*0201 complex (biotin on the C-terminal biotinylation tag (enzymatic, BirA))
# T1 construct: also called soluble biotinylated HLA-A2-peptide complex; not shown: C-terminal biotinylation tag that replaces the transmembrane and cytoplasmic domains
# EXPERIMENTAL DETAILS: Biacore SPR, pMHC immobilised
PROPERTY MEASURED: koff

Name the recorded koff for SEQ ID NO 14 (receptor) MAQHLPKPTLWAEPGSVITMDQPVTLRCQGGQETQEYRLYREKKTAPWITRIPQELVKKGQFPIPSITWEHAGRYRCYYGSDTSQWSASSDPLELVVTGVYIKPTLSAQPSPVVNSGGNVTLQCDSQVDFDGFILCKEGEDEHPQCLNSQPHARGSSRAIFSVGPVSPSRRWWYRCYAYDSNSPYEWSLPSDLLELDVDG .
≤ 2 s⁻¹
